assay_method_text: PAMPA analysis
Type: in vitro ADME
settings: pH 7.4, GIT Lipid-0, incubation for 4 h, read-out: Pe pH 7.4
Method: Donor: System Solution Concentrate (pION inc.) (25 mL) and DMSO (50 mL) (f.c. 5%) was diluted to 1 L with milliQ water, adjusted to pH5.0 or 7.4 with NaOH. […] Compound solution (200 μL) was added to Donor plate. […] After incubation for 4 h under humidified conditions, the concentration of test compound in both solutions of Acceptor and Donor plates were measured by UV plate reader (190-500 nm). Permeation coefficient Pe(10^−6 cm/sec) was calculated by the equation shown below. […]
Papp at 4 h, 50 µM overview
assay_metric: Papp at 4 h, 50 µM (×10⁻⁶ cm/s)

                           structure_smiles  quantity_unit  qualifier  readout_value
0  CCC[C@@H](CCO)Nc1nc(N)nc(C)c1Cc1ccc(N2CCN(C)CC2=O)cc1OC     ×10⁻⁶ cm/s          =           23.7
1  CCC[C@@H](CCO)Nc1nc(N)nc(C)c1Cc1ccc(N2CCNCC2=O)cc1OC     ×10⁻⁶ cm/s          <            0.1
2  CCCCNc1nc(N)nc(C)c1Cc1ccc(N2CCN(C)CC2=O)cc1OC     ×10⁻⁶ cm/s          =           35.6
3  CCCCCNc1nc(N)nc(C)c1Cc1ccc(N2CCN(C)CC2=O)cc1OC     ×10⁻⁶ cm/s          =           44.2
4  CCC[C@@H](CO)Nc1nc(N)nc(C)c1Cc1ccc(N2CCN(C)CC2=O)cc1OC     ×10⁻⁶ cm/s          =            1.3

---

tgt: hERG current (Homo sapiens, UniProt Q12809)
Sequence (Q12809 whole entry): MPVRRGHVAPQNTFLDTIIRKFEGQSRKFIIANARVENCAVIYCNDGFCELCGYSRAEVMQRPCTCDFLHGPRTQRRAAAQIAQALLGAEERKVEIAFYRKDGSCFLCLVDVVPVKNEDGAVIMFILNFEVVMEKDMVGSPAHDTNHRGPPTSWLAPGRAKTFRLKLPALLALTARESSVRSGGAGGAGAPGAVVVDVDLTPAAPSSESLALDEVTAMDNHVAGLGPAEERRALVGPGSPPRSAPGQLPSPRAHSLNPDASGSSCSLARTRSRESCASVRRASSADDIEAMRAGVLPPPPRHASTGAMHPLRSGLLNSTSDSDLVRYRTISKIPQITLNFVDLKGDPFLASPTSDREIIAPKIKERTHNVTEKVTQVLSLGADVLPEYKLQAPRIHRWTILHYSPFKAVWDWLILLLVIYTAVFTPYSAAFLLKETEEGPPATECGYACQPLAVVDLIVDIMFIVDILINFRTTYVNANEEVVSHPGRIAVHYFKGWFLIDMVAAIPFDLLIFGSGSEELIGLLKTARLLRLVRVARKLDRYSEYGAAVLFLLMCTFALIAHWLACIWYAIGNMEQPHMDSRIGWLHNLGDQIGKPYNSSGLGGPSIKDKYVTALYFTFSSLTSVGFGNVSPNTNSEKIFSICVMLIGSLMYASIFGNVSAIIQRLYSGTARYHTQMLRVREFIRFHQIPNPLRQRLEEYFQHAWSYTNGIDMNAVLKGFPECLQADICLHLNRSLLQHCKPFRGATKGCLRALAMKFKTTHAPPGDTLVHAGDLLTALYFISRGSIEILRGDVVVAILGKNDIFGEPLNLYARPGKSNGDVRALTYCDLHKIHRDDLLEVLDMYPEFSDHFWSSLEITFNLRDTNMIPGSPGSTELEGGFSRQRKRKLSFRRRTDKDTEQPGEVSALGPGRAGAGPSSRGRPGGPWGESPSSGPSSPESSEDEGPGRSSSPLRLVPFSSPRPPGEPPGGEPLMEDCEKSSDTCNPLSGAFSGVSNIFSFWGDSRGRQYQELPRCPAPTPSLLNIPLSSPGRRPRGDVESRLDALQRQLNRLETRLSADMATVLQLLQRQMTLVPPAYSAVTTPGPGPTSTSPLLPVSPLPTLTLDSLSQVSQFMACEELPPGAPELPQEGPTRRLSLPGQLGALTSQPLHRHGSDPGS
assay_method_text: hERG analysis Method 2 (IonWorks HT, CHO cells)
settings: hERG-expressing CHO cells, ~21° C., 8-point non-cumulative curves
assay_metric: IC50 (µM)

In [3]: df
Out[3]:
                           structure_smiles                                       tgt  qualifier  readout_value
0  CCC[C@@H](CCO)Nc1nc(N)nc(C)c1Cc1ccc(N2CCN(C)CC2=O)cc1OC  hERG current (Homo sapiens, UniProt Q12809)          >             33
1  CCCCCNc1nc(N)nc(C)c1Cc1ccc(N2CCN(C)CC2=O)cc1OC  hERG current (Homo sapiens, UniProt Q12809)          =           5.41

---

tgt: full-length human TLR8 (Homo sapiens)
Construct: a stably co-transfected cell line which expresses full-length human TLR8
Sequence (Q9NR97 27-1041): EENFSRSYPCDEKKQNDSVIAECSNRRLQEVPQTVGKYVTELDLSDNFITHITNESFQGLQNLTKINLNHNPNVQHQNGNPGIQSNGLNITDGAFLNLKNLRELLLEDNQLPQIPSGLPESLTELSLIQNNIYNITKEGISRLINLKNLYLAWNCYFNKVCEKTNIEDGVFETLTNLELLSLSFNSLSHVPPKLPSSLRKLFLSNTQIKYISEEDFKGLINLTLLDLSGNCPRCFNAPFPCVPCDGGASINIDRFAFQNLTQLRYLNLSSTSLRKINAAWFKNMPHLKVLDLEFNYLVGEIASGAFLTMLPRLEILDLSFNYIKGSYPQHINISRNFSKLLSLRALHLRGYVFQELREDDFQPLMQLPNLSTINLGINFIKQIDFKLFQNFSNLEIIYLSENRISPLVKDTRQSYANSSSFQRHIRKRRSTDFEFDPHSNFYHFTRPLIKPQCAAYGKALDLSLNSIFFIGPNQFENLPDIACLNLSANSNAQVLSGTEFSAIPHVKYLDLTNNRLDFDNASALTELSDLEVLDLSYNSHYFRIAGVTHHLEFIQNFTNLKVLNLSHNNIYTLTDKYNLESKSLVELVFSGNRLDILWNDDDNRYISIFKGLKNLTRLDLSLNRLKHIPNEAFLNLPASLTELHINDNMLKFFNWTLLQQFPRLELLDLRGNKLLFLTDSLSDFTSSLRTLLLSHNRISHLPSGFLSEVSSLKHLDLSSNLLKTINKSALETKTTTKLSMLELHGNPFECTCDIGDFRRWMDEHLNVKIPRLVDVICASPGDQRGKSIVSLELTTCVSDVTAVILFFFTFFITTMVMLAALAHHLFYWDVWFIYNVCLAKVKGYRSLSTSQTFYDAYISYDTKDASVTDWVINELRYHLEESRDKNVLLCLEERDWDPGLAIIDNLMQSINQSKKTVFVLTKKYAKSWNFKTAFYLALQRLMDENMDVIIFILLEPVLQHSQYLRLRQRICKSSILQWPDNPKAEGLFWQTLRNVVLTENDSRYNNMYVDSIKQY
assay_method_text: Human TLR8 assay (TLR8/NF-κB/SEAPorter HEK 293 cell line)
settings: TLR8 activation, SEAP induction, HEK 293 reporter cells, overnight incubation at 37° C., 0.1% DMSO
Overview of reported EC50 across a group of compounds:
assay_metric: EC50 (µM)

In [3]: df
Out[3]:
                                   compound  qualifier  readout_value
0  CCC[C@@H](CO)Nc1nc(N)nc(C)c1Cc1ccc(N2CCN(C)CC2=O)cc1OC [Example 4]          =           5.01
1  CCCCCNc1nc(N)nc(C)c1Cc1ccc(N2CCN(C)CC2=O)cc1OC [Example 2]          >             10
2  CCCCNc1nc(N)nc(C)c1Cc1ccc(N2CCN(C)CC2=O)cc1OC [Example 1]          >             10
3  CCC[C@@H](CCO)Nc1nc(N)nc(C)c1Cc1ccc(N2CCNCC2=O)cc1OC [Example 5]          >             10
4  CCC[C@@H](CCO)Nc1nc(N)nc(C)c1Cc1ccc(N2CCN(C)CC2=O)cc1OC [Example 3]          =           6.31

The reported measurements were obtained from patent US20130267532A1.
